- Test system: Vero
- method_notes: Cytotoxicity against African green monkey Vero cells assessed as reduction in cell viability incubated for 72 hrs by MTT assay
- Type: cell-based
- assay_context: Chlorocebus sabaeus
result_type: IC50 (µM)

CN[C@@H]1C[C@H]2O[C@@](C)([C@@H]1OC)n1c3ccccc3c3c4c(c5c6ccccc6n2c5c31)C(=O)NC4: 0.028
CCCCC(=O)Nc1nnc(-c2cccc([N+](=O)[O-])c2)s1: 289
CCCCC(=O)Nc1nnc(-c2ccc([N+](=O)[O-])cc2)s1: 278
O=C(Nc1nnc(-c2ccc([N+](=O)[O-])cc2)s1)c1ccc([N+](=O)[O-])cc1: 290
O=C(Nc1nnc(-c2cccc([N+](=O)[O-])c2)s1)c1ccco1: 312
CCCC(=O)Nc1nnc(-c2ccc([N+](=O)[O-])cc2)s1: 301
O=C(Nc1nnc(-c2ccc([N+](=O)[O-])cc2)s1)c1ccco1: 306
COc1ccc(C(=O)Nc2nnc(-c3ccc([N+](=O)[O-])cc3)s2)cc1: 278
O=C(Nc1nnc(-c2cccc([N+](=O)[O-])c2)s1)c1ccc([N+](=O)[O-])cc1: 268
Cc1ccc(C(=O)Nc2nnc(-c3ccc([N+](=O)[O-])cc3)s2)cc1: 310
O=C(Nc1nnc(-c2ccncc2)s1)c1ccc([N+](=O)[O-])cc1: 369

---

- Test system: Mycobacterium tuberculosis
- method_notes: Antimycobacterial activity against Mycobacterium tuberculosis H37Rv incubated for 12 to 28 days by agar dilution method
- Type: functional
result_type: MIC90 (µM)

COc1ccc(C(=O)Nc2nnc(-c3cccc([N+](=O)[O-])c3)s2)cc1: 35
O=C(Nc1nnc(-c2ccc([N+](=O)[O-])cc2)s1)c1ccccc1: 38
O=C(Nc1nnc(-c2ccncc2)s1)c1ccc([N+](=O)[O-])cc1: 9.93
COc1ccc(C(=O)Nc2nnc(-c3ccc([N+](=O)[O-])cc3)s2)cc1: 35
CCC(=O)Nc1nnc(-c2ccc([N+](=O)[O-])cc2)s1: 89
CC(C)(C)C(=O)Nc1nnc(-c2ccncc2)s1: 238
O=C(Nc1nnc(-c2cccc([N+](=O)[O-])c2)s1)c1ccco1: 19
CCC(=O)Nc1nnc(-c2cccc([N+](=O)[O-])c2)s1: 89
CCCC(=O)Nc1nnc(-c2cccc([N+](=O)[O-])c2)s1: 42
O=C(Nc1nnc(-c2ccc([N+](=O)[O-])cc2)s1)C(Cl)(Cl)Cl: 273
O=C(Nc1nnc(-c2ccncc2)s1)c1cccs1: 21
O=C(CCCCl)Nc1nnc(-c2cccc([N+](=O)[O-])c2)s1: 153
CCCC(=O)Nc1nnc(-c2ccncc2)s1: 201
CO[C@H]1/C=C/O[C@@]2(C)Oc3c(C)c(O)c4c(O)c(c(/C=N/N5CCN(C)CC5)c(O)c4c3C2=O)NC(=O)/C(C)=C\C=C\[C@H](C)[C@H](O)[C@@H](C)[C@@H](O)[C@@H](C)[C@H](OC(C)=O)[C@@H]1C [RIFAMPIN]: 0.152
CCCCC(=O)Nc1nnc(-c2cccc([N+](=O)[O-])c2)s1: 40
O=C(Cl)CCCCC(=O)Nc1nnc(-c2cccc([N+](=O)[O-])c2)s1: 135
O=C(Nc1nnc(-c2ccc([N+](=O)[O-])cc2)s1)c1ccc([N+](=O)[O-])cc1: 16.8
CCCC(=O)Nc1nnc(-c2ccc([N+](=O)[O-])cc2)s1: 42
O=C(Nc1nnc(-c2ccc([N+](=O)[O-])cc2)s1)c1ccco1: 9.87
C/C=C/C(CCC)N(C(=O)c1ccccc1)c1nnc(-c2ccc([N+](=O)[O-])cc2)s1 (stereo not given): 117
CC(C)(C)C(=O)Nc1nnc(-c2cccc([N+](=O)[O-])c2)s1: 204
O=C(CCCCl)Nc1nnc(-c2ccncc2)s1: 221
O=C(Nc1nnc(-c2cccc([N+](=O)[O-])c2)s1)c1cccs1: 301
NNC(=O)c1ccncc1 [ISONIAZID]: 3.64
Cc1ccc(C(=O)Nc2nnc(-c3ccc([N+](=O)[O-])cc3)s2)cc1: 18.4
O=C(CCl)Nc1nnc(-c2ccc([N+](=O)[O-])cc2)s1: 168
O=C(Nc1nnc(-c2cccc([N+](=O)[O-])c2)s1)c1ccccc1: 38
O=C(CCl)Nc1nnc(-c2cccc([N+](=O)[O-])c2)s1: 21
O=C(CCl)Nc1nnc(-c2ccncc2)s1: 196
CCCCC(=O)Nc1nnc(-c2ccncc2)s1: 95
CCCCC(=O)Nc1nnc(-c2ccc([N+](=O)[O-])cc2)s1: 40
O=C(Cl)CCCCC(=O)Nc1nnc(-c2ccc([N+](=O)[O-])cc2)s1: 135
O=C(Nc1nnc(-c2cccc([N+](=O)[O-])c2)s1)c1ccc([N+](=O)[O-])cc1: 33
CC(C)(C)C(=O)Nc1nnc(-c2ccc([N+](=O)[O-])cc2)s1: 204
O=C(Cl)CCCCC(=O)Nc1nnc(-c2ccncc2)s1: 192
O=C(CCCCl)Nc1nnc(-c2ccc([N+](=O)[O-])cc2)s1: 153

Values from ChEMBL document CHEMBL4339182
